- Experimental target: 5-hydroxytryptamine receptor 3A (Homo sapiens); further: assay procedure not described here
- Sequence (P46098 whole entry): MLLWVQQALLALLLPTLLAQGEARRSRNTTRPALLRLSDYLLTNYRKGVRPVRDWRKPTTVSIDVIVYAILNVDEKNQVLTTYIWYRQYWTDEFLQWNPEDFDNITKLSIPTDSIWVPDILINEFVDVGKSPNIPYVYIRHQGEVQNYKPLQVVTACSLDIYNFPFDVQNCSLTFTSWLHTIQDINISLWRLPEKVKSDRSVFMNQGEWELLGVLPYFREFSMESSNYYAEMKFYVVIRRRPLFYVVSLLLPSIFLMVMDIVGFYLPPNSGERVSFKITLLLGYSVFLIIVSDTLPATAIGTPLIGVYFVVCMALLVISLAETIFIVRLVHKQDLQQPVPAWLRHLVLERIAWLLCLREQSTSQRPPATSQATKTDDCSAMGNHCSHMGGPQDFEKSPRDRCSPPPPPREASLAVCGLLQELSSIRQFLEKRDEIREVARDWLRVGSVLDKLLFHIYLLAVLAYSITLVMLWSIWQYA
- Type: functional
Catalogue of compounds with associated AC50

- CNCCCC1c2ccccc2C=Cc2ccccc21: > 30 µM
- CC(C)(C)NCC(O)c1cc(Cl)c(N)c(Cl)c1 (stereo not drawn): > 30 µM
- C[C@H]1C[C@H]2[C@@H]3CCC4=CC(=O)C=C[C@]4(C)[C@@]3(Cl)[C@@H](O)C[C@]2(C)[C@@]1(O)C(=O)CO: > 30 µM
- COC1=C(OC)C(=O)C(CCCCCCCCCCO)=C(C)C1=O: > 10 µM
- COc1ccc2c(c1)[C@]13CCCC[C@@H]1[C@H](C2)N(C)CC3: > 10 µM

Find the recorded AC50 belonging to C[n+]1ccccc1/C=N/O and report it. > 30 µM

What do you get for CO/N=C(\C(=O)N[C@@H]1C(=O)N2C(C(=O)O)=C(COC(N)=O)CS[C@H]12)c1ccco1 ? > 30 µM

What do you get for C=C(C)[C@@H]1CCC(C)=C[C@H]1c1c(O)cc(CCCCC)cc1O ? > 30 µM

----------
- Experimental target: UniProt:P30542
- Sequence (P30542 whole entry): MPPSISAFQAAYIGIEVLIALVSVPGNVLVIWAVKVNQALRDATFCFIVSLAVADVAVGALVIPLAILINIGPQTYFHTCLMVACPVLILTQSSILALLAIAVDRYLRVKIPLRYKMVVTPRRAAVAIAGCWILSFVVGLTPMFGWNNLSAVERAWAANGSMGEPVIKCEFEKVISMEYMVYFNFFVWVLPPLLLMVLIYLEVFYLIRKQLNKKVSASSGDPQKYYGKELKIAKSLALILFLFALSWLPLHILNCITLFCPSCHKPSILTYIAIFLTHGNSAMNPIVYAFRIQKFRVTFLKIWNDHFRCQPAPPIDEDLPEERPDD
Catalogue of compounds with associated AC50

Worked examples, 5 compounds total:
* C[C@H]1Oc2cc(cnc2N)-c2c(nn(C)c2C#N)CN(C)C(=O)c2ccc(F)cc21 [LORLATINIB] | > 30 µM
* O=C(Nc1nc(-c2cc(Cl)cs2)c(N2CCN(C3CCCCC3)CC2)s1)c1cnc(N2CCC(C(=O)O)CC2)c(Cl)c1 [AVATROMBOPAG] | > 10 µM
* NS(=O)(=O)c1cc(C(=O)O)cc(N2CCCC2)c1Oc1ccccc1 [PIRETANIDE] | > 30 µM
* CCOc1cc(CC(=O)N[C@@H](CC(C)C)c2ccccc2N2CCCCC2)ccc1C(=O)O [REPAGLINIDE] | > 30 µM
* CC(C)CC(N(C)C)C1(c2ccc(Cl)cc2)CCC1 (stereo unspecified) [SIBUTRAMINE] | > 30 µM

Find the recorded AC50 belonging to O=C(O)c1cc(O)c2c3nc4ccccc4oc-3cc(=O)c2n1 [PIRENOXINE] and report it. > 30 µM

What do you get for CC(=O)OCC(=O)[C@@]1(O)CC[C@H]2[C@@H]3CCC4=CC(=O)CC[C@]4(C)C3=CC[C@@]21C [ANECORTAVE ACETATE] ? > 10 µM

What do you get for NCCCC(O)(P(=O)(O)O)P(=O)(O)O [ALENDRONIC ACID] ? > 30 µM

----------
- Experimental target: UniProtKB P11229
- Sequence (P11229 whole entry): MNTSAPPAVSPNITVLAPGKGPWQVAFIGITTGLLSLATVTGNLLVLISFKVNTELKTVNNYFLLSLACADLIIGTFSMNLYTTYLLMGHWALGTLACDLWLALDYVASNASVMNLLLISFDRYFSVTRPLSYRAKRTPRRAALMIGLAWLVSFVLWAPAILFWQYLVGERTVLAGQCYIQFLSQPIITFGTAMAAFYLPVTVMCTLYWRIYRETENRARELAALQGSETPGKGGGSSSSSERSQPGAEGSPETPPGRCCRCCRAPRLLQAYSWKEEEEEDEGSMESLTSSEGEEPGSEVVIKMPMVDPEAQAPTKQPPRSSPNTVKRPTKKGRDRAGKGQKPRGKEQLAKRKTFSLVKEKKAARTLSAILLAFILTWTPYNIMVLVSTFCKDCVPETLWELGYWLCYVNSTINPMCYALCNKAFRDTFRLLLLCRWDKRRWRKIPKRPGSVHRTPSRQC
- Assay type: functional
Catalogue of compounds with associated AC50

- CCC(C)(Oc1ccc(C2(c3ccc(OC(C)(CC)C(=O)O)cc3)CCCCC2)cc1)C(=O)O (centres undefined) [CLINOFIBRATE]: > 30 µM
- O=C1Nc2ccc(Cl)cc2C(c2ccccc2)=NC1O (centres undefined) [OXAZEPAM]: > 10 µM
- O=C(Nc1c(Cl)cncc1Cl)c1ccc(OC(F)F)c(OCC2CC2)c1 [ROFLUMILAST]: > 30 µM

Find the recorded AC50 belonging to CCCN(CCc1cccs1)[C@H]1CCc2c(O)cccc2C1 [ROTIGOTINE] and report it. 25 µM

----------
- Experimental target: UniProt:Q01959
- Sequence (Q01959 whole entry): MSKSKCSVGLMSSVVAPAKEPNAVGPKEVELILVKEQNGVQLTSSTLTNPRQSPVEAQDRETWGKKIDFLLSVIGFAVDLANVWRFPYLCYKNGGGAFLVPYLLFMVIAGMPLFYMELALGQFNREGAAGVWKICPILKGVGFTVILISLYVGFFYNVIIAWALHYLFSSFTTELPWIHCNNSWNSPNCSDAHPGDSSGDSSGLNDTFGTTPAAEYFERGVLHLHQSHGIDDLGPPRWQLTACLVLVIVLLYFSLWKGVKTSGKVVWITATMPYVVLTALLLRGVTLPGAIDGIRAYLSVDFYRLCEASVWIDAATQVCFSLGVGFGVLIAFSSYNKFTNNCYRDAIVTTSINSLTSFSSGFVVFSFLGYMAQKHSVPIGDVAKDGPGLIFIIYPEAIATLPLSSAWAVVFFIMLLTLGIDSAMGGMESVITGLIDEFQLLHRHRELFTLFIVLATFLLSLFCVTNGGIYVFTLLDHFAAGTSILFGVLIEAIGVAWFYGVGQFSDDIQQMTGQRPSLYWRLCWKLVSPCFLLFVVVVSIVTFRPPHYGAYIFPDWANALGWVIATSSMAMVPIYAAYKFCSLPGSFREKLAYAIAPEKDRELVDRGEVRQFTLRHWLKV
Catalogue of molecules with associated AC50

Worked examples, 2 molecules total:
• O=C(O)c1cc(O)c2c3nc4ccccc4oc-3cc(=O)c2n1 = > 30 µM
• CNCCCC1c2ccccc2C=Cc2ccccc21 = 17.8 µM

With those in mind, consider the next molecule.
Find the recorded AC50 belonging to CN1[C@@H]2CC[C@H]1C[C@@H](OC(=O)c1c[nH]c3ccccc13)C2 and report it. > 30 µM

----------
- Experimental target: Estrogen receptor (Homo sapiens); further: assay procedure not described here
- Sequence (P03372 whole entry): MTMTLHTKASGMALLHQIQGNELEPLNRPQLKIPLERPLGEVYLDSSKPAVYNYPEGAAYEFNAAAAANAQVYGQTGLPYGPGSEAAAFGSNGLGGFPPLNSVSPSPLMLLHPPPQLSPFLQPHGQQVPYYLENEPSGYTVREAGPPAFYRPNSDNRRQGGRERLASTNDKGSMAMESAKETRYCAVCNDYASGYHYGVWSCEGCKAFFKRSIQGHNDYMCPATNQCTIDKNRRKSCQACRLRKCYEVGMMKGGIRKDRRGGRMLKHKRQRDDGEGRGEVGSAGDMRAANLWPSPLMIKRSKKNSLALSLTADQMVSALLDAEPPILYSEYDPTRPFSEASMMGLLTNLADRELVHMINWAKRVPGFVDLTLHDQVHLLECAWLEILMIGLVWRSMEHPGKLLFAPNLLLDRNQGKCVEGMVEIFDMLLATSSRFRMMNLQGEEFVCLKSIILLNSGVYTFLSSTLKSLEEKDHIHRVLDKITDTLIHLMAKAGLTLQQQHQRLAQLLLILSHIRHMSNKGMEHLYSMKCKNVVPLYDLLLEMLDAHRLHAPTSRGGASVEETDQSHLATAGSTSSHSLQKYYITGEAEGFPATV
- Assay type: functional
Measured quantity: AC50

- CCc1oc2ccccc2c1C(=O)c1cc(Br)c(O)c(Br)c1: 7.6 µM
- CC(=O)S[C@@H]1CC2=CC(=O)CC[C@]2(C)[C@H]2CC[C@@]3(C)[C@@H](CC[C@@]34CCC(=O)O4)[C@H]12: > 30 µM

With those in mind, consider the next compound.
Find the recorded AC50 belonging to CC(=N)N1CC[C@H](SC2=C(C(=O)O)N3C(=O)[C@H]([C@@H](C)O)[C@H]3C2)C1 and report it. > 300 µM

----------
Reported AC50 for target or system UniProtKB P35439, by entry.

* CC(=O)Oc1ccccc1C(=O)Nc1ncc([N+](=O)[O-])s1 [NITAZOXANIDE] | > 30 µM
* C[C@H]1C[C@H]2[C@@H]3CCC4=CC(=O)C=C[C@]4(C)[C@@]3(Cl)[C@@H](O)C[C@]2(C)[C@@]1(O)C(=O)CO | > 10 µM

With those in mind, consider the next compound.
Find the recorded AC50 belonging to N[C@H](Cc1cc(I)c(Oc2cc(I)c(O)c(I)c2)c(I)c1)C(=O)O and report it. > 10 µM

----------
- Experimental target: Androgen receptor (Rattus norvegicus); further: assay procedure not described here
- Sequence (P15207 whole entry S389L): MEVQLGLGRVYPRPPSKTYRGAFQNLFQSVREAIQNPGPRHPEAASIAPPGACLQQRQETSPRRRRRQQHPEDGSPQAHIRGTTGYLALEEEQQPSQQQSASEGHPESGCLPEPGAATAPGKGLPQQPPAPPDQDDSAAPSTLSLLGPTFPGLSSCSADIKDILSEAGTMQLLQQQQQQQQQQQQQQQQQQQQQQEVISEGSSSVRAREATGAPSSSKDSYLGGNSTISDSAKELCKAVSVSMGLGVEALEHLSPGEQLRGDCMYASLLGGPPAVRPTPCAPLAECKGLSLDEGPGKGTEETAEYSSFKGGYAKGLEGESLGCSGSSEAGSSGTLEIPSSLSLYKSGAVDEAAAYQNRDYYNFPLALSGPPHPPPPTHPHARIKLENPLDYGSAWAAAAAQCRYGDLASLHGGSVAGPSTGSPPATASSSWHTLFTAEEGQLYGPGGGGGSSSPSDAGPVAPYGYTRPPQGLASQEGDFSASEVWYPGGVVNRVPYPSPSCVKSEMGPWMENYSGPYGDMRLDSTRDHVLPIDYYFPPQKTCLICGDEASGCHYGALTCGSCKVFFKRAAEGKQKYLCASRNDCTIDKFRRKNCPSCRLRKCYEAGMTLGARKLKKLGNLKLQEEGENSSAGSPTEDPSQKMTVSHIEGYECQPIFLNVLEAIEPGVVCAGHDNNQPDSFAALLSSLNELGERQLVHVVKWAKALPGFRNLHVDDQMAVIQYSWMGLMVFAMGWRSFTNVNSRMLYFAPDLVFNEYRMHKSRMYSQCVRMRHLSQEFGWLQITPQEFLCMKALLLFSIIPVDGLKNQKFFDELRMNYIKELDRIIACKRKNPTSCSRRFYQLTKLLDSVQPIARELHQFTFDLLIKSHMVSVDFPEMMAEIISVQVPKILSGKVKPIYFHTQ
- Assay type: functional
Catalogue of compounds with associated AC50

Worked examples, 5 compounds total:
- Cc1cc2nc3c(=O)[nH]c(=O)nc-3n(C[C@H](O)[C@H](O)[C@H](O)COP(=O)(O)O)c2cc1C [RIBOFLAVIN 5'-PHOSPHATE]: > 30 µM
- C[C@@H]1C[C@H]2[C@@H]3C[C@H](F)C4=CC(=O)C=C[C@]4(C)[C@@]3(F)[C@@H](O)C[C@]2(C)[C@H]1C(=O)CO: 2.6 µM
- COC(=O)N[C@@H](C)CNc1nccc(-c2cn(C(C)C)nc2-c2cc(Cl)cc(NS(C)(=O)=O)c2F)n1: > 30 µM
- CCN(CC)C(=O)C1CN2CCc3cc(OC)c(OC)cc3C2CC1OC(C)=O (stereo unspecified) [BENZQUINAMIDE]: > 30 µM
- O=C(O)CSCC(=O)NC1CCSC1=O (stereo unspecified): > 30 µM

With those in mind, consider the next compound.
Find the recorded AC50 belonging to O=C(CCCN1CCC(n2c(O)nc3ccccc32)CC1)c1ccc(F)cc1 and report it. 7.1 µM

----------
- Experimental target: Type-1 angiotensin II receptor (Homo sapiens, UniProt P30556); further: assay procedure not described here
- Sequence (P30556 whole entry): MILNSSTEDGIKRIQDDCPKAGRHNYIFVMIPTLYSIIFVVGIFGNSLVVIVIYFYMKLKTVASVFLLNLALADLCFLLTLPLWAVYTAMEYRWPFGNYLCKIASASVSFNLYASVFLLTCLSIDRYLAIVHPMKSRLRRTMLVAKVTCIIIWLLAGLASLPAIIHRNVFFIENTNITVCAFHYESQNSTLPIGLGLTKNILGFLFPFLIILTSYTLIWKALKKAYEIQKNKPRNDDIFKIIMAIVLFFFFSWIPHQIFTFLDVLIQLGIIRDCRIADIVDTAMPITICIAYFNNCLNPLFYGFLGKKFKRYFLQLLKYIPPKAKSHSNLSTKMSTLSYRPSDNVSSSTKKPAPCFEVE
Measured quantity: AC50

• CC1(C)O[C@@H]2[C@@H](CO[C@@]3(COS(N)(=O)=O)OC(C)(C)O[C@@H]23)O1 [TOPIRAMATE] = > 30 µM
• CCN(CC)CC(=O)Oc1ccc(NC(C)=O)cc1 [PROPACETAMOL] = > 30 µM
• CO/N=C(\C(=O)N[C@@H]1C(=O)N2C(C(=O)O)=C(COC(N)=O)CS[C@H]12)c1ccco1 [CEFUROXIME] = > 30 µM
• CC1(C)S[C@@H]2[C@H](NC(=O)[C@H](N)c3ccc(O)cc3)C(=O)N2[C@H]1C(=O)O [AMOXICILLIN] = > 30 µM
• C=CC(N)CCC(=O)O (stereo unspecified) [VIGABATRIN] = > 10 µM
• NS(=O)(=O)c1cc(C(=O)O)cc(N2CCCC2)c1Oc1ccccc1 [PIRETANIDE] = > 30 µM

Find the recorded AC50 belonging to NS(=O)(=O)c1cc2c(cc1C(F)(F)F)NC(Cc1ccccc1)NS2(=O)=O (stereo unspecified) [BENDROFLUMETHIAZIDE] and report it. > 10 µM

What do you get for COC(=O)[C@H](c1ccccc1Cl)N1CCc2sccc2C1 [CLOPIDOGREL] ? > 30 µM

What do you get for Cc1ccc(=O)n(-c2ccccc2)c1 [PIRFENIDONE] ? > 30 µM

What do you get for CNCCC=C1c2ccccc2CCc2ccccc21 [NORTRIPTYLINE] ? > 30 µM

What do you get for CC1(C)C(/C=C/C=C/C=C/C=C2\N(CCCCS(=O)(=O)O)c3ccc4ccccc4c3C2(C)C)=[N+](CCCCS(=O)(=O)[O-])c2ccc3ccccc3c21 [INDOCYANINE GREEN ACID FORM] ? 9 µM
